- EXPERIMENTAL_TARGET: CGRP receptor (SK-N-MC membrane) (Homo sapiens, UniProt O60894+Q16602)
- Construct: Purified SK-N-MC membrane was purchased from Perkin Elmer
- Sequence (Q16602 23-461): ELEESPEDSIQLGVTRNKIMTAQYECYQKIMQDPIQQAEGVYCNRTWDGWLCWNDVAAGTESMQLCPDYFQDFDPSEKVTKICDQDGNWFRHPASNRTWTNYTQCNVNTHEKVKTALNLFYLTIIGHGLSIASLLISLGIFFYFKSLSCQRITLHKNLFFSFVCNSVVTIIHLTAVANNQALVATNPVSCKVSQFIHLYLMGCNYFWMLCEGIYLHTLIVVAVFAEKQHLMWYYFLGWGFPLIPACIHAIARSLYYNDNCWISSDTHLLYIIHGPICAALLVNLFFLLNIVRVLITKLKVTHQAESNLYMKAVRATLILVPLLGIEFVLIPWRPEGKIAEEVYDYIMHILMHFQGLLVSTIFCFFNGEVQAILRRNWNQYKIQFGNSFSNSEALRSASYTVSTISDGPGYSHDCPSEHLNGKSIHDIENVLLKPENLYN
- Sequence (O60894 27-148): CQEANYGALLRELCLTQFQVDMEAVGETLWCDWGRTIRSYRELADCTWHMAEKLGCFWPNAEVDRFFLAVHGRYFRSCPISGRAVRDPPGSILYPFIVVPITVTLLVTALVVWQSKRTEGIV
- METHOD_NOTES: I125-CGRP binding displacement assay on purified SK-N-MC membrane
MEASURED_PARAMETER: Ki

Record CC(C)(C)CCN1C(=O)C(CC(=O)N2CCC(N3Cc4ccccc4NC3=O)CC2)SC12CCc1ccccc12 (stereo not drawn) , field Ki: < 1000 nM

What the record says about CN1CCN(c2ccccc2C2SC(CC(=O)N3CC(N4Cc5ccccc5NC4=O)C3)C(=O)N2CCC(C)(C)C)CC1 (stereo not drawn) : Ki is < 1000 nM

Reported Ki for CC(C)(C)CCN1C(=O)[C@H](CC(=O)N2CCC(N3CCc4ccccc4NC3=O)CC2)SC1c1cccc(F)c1N1CCN(C2CCC2)CC1 (stereo partly drawn) [Compound 543] was < 1000 nM

# compound CC(C)(C)CCN1C(=O)[C@H](CC(=O)N2CCC(N3CCc4ccccc4NC3=O)CC2)SC1c1ccn(C2CCN(C(=O)OC(C)(C)C)CC2)n1 (stereo partly drawn) ; its Ki = < 1000 nM

Ki reading for CC(C)(C)CCN1C(=O)C(CC(=O)N2CCC(N3CCc4ccccc4NC3=O)CC2)SC1c1cccc(F)c1N1CCNCC1 (stereo not drawn) : > 5000 nM

Notebook: CC(C)CCN1C(=O)[C@H](CC(=O)N2CCC(N3CCc4ccccc4NC3=O)CC2)SC1c1cccc(F)c1N1CCN(C(C)(C)C)CC1 (stereo partly drawn) [Compound 544] , Ki read as < 1000 nM
